Each entry below lists one item and its recorded IC50 value.
System: Hela cells
Test: MTT proliferation assay on HeLa cells
Type: cell-based
Settings: Homo sapiens, 48 h
Write the value in µM as a bare number.

Worked examples follow.
1. CC(C)=C1C/C=C(\C)CC/C=C(\C)CC1OC(=O)/C=C\c1ccccc1 (stereo not drawn) = 88.2
2. CC(C)=C1C/C=C(\C)CC/C=C(\C)CC1O (stereo not drawn) = 163

Please find the next compound below.
query: Let me know recorded IC50 for CC(C)=C1C/C=C(\C)CC/C=C(\C)CC1OC(=O)c1ccc(C(F)(F)F)cc1 (stereo not drawn) , thanks.
result: 93.3

---

Listed next: entries and their corresponding inhibition at 0.19 µM.
Target: recombinant human c-Met residues 974-end (Homo sapiens)
Construct: recombinant human c-Met residues 974-end; 6His; purchased Millipore
Experiment: Inhibition of c-Met kinase (TR-FRET)
Assay type: biochemical
Details: 0.19 μM; read-out: Inhibitory rate on c-Met kinase
Give the value in % but do not write % after it.

// worked examples, inhibition at 0.19 µM included
1) CC(C)=C1C/C=C(\C)CC/C=C(\C)CC1O (stereo not drawn) [Compound 2] = 20
2) CC(C)=C1C/C=C(\C)CC/C=C(\C)CC1OC(=O)c1cccc(C)c1 (stereo not drawn) [Compound 3c] = 33.8

query: Let me know recorded inhibition at 0.19 µM for CC(C)=C1C/C=C(\C)CC/C=C(\C)CC1OC(=O)c1ccc(C(F)(F)F)cc1 (stereo not drawn) [Compound 3d] , thanks.
result: 31.6

---

Molecular target: recombinant human c-Met residues 974-end (Homo sapiens)
Construct: recombinant human c-Met residues 974-end; 6His; purchased Millipore
Assay: Inhibition of c-Met kinase (TR-FRET)
Assay type: biochemical
Details: 50.00 μM; read-out: Inhibitory rate on c-Met kinase
Reported values of inhibition at 50 µM for individual entries
Answer with a number only, understood to be in %.

Field: example entries. Status: answers known.
1) CC(=O)OC1C/C(C)=C/CC/C(C)=C/CC1=C(C)C (stereo not shown) = 84.3
2) CC(C)=C1C/C=C(\C)CC/C=C(\C)CC1OC(=O)c1cccc(C)c1 (stereo not shown) = 83.7
3) CC(C)=C1C/C=C(\C)CC/C=C(\C)CC1OC(=O)/C=C\c1ccccc1 (stereo not shown) = 85.3

Attention now shifts to the item below.
query: Identify measured inhibition at 50 µM obtained with recombinant human c-Met residues 974-end (Homo sapiens) for CC(C)=C1C/C=C(\C)CC/C=C(\C)CC1=O [Compound 1, germacrone, reference compound] .
result: 82.1

---

Target: recombinant human c-Met residues 974-end (Homo sapiens, UniProt P08581)
Construct: recombinant human c-Met residues 974-end; 6His; purchased Millipore
Sequence (P08581 974-1390 limits assumed): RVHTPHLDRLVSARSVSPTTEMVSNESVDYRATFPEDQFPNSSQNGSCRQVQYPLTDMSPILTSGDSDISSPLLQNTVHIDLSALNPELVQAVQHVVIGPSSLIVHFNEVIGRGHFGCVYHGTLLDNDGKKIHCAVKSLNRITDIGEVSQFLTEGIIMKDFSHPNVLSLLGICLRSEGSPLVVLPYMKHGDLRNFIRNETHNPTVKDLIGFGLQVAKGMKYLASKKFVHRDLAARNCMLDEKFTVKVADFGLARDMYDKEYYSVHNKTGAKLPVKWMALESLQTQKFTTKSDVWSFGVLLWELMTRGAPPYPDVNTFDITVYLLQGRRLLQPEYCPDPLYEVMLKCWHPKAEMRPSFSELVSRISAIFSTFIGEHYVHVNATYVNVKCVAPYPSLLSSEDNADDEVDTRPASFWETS
Assay: Inhibition of c-Met kinase (TR-FRET)
Format: biochemical
Conditions: 0.78 μM; read-out: Inhibitory rate on c-Met kinase
Property Measured: inhibition at 0.78 µM (%)
Give the value, in units of %, as a plain number.

Recorded results for 5 molecules are shown here.
1. CC(C)=C1C/C=C(\C)CC/C=C(\C)CC1OC(=O)/C=C\c1ccccc1 (stereo not shown) = 48
2. CC(C)=C1C/C=C(\C)CC/C=C(\C)CC1O (stereo not shown) = 43.1
3. CC(C)=C1C/C=C(\C)CC/C=C(\C)CC1OC(=O)c1cccc(C)c1 (stereo not shown) = 48
4. CC(C)=C1C/C=C(\C)CC/C=C(\C)CC1OC(=O)c1ccc(C(F)(F)F)cc1 (stereo not shown) = 47.1
5. CC(C)=C1C/C=C(\C)CC/C=C(\C)CC1OC(=O)c1ccc(C)cc1 (stereo not shown) = 54.5

query: For the molecule CC(=O)OC1C/C(C)=C/CC/C(C)=C/CC1=C(C)C (stereo not shown) , give its reported inhibition at 0.78 µM.
result: 47.2

query: Indicate its recorded inhibition at 0.78 µM; the molecule in question is CC(C)=C1C/C=C(\C)CC/C=C(\C)CC1=O [Compound 1, germacrone, reference compound]
result: 47
